Consider the following compounds; for each one, report its Cl.
- Species on record: Rattus norvegicus
- ASSAY PROTOCOL: Open TG-GATES - Regimen: Daily Repeat
- Assay type: toxicity, organism-based, Sprague-Dawley
- Design: regimen Daily Repeat, gender Male, age 6 weeks
- SETUP CONDITIONS: in vivo, po, 100 mg/kg, […], tissue Plasma, route gavage, dose level Low, time 28 day
Answers are plain numbers, in meq/L.

COMPOUND	MEASURED QUANTITY	UNITS SYMBOL	NUMERIC RESULT
CCN1CCCC1CNC(=O)c1cc(S(N)(=O)=O)ccc1OC (centres undefined) [SULPIRIDE]	Cl	meq/L	105.2
O=C(O)c1cccnc1	Cl	meq/L	107
O=C(N[C@H](CO)[C@H](O)c1ccc([N+](=O)[O-])cc1)C(Cl)Cl	Cl	meq/L	104.4

Lab note: CC(C)(S)[C@@H](N)C(=O)O gave Cl of 105.8
